apparent Kd by entry:
Tested on: MS2 coat protein
Method: apparent Kd, MS2 coat protein; higher = weaker binding; RNA-MaP array
Experimental Conditions: designed as: OFF switch for flavin mononucleotide; no ligand
Number only, in nM; omit the unit.

Record Sequence | apparent Kd, nM
AUUGGAGACUGGUACAUGAGGAUCACCCAUGUUAAUAACAGUAGAAGGCCCGCGGUUAGAAGAUGGGAGGAUAUACACGUGGGU | 10.4
UAUUUAUCUAUUGUGACAAACAUGAGGAUCACCCAUGUAUACAGAAGGCAUUACCGAAUCUCGGAUGAGGAUAUGUUAUGGAGU | 14
ACUCGUUAAGGAUAUACUCGGUUUACUUGCAUGUUCGGCGCACAUGAGGAUCACCCAUGUAGAAGGUAAUAUUC | 24.6
CGUAUAGCAGGAUAUACAUGAGGAUCACCCAUGUUUUUCGUUGUGUGGUGCCAAGCGUGUAGAAGGGCUUCCUC | 52.4

# lookup: apparent Kd of UCUAAAAUCGGAGGAUAUUACGAAGACAUGAGGAUCACCCAUGUAGUGGAACACAUAAGUCGCUCUAAGAAGGCCGCAAUUGAC
29.5

# lookup: apparent Kd of AAACUCCGCAAGAAGGGUAUUCAAUGAAGUUGUACAGGAUAUUGGCGCAGACAUGAGGAUCACCCAUGUAAGUUCUUCAUGGUU
125

# lookup: apparent Kd of ACGUUCCUGAGAGGAUAUUCCAACAUGAGGAUCACCCAUGUAGAUGGUCGAUGCUUCCAUUCAGCGAAGAAGGCUCUAAAGGGC
22.3

# lookup: apparent Kd of CGUCGAUAACCACAUGAGGAUCACCCAUGUAAUGUGGUGUGGAGAAGGUCGUGCUAGUUCUAUACGAAGGAUAUCCACGAAUCU
124

# lookup: apparent Kd of GAGCACUUAGGAUAUUGGUUGACACACAUGAGGAUCACCCAUGUGAUUCCUGCCUUUAACCAAGAAGGAAGAGUAU
14.7

# lookup: apparent Kd of CUUAGGUGAGGAUAUCCUGAAUGGGUCGCUACCAGCCGUUCGGAGAAGGCACAUGAGGAUCACCCAUGUUUUGA
34.6

# lookup: apparent Kd of CGACCGCACGAGAAGGCUAGACAGCGGCGAUCUAGAGGAUAUCGACAUUCAACAUGAGGAUCACCCAUGUGAUUCCAACAAGCU
57.8

# lookup: apparent Kd of GCGUGGUAAGGAUAUGUGUACGUCCGGUAGUAUAGCGUACAACAGAAGGUACAUGAGGAUCACCCAUGUGUCCG
7.03

# lookup: apparent Kd of UUUAUAAUCGUAAGGAUAUCCGCGUUAGUCCACCCGGAGAAGGUACAUGAGGAUCACCCAUGUGAACUAUGGGU
24.4

# lookup: apparent Kd of GACACCCAAGGAUAUCAAUGAAUCAACAUGAGGAUCACCCAUGUCGUCACCAGAUUAAACUGAGAAGGAGGAGAAA
11.4

# lookup: apparent Kd of UUCAUUUAGGAGGAUAUUUAGGCAUGAGGGCUAAAAGAAGGCCUAACAUGAGGAUCACCCAUGUUUGGACUAGA
5.51

====

Tested on: MS2 coat protein
Method: apparent Kd, MS2 coat protein; higher = weaker binding; RNA-MaP array; FMN 200 µM where present
Experimental Conditions: designed as: ON switch for flavin mononucleotide; no ligand
Property Label: apparent Kd (nM)
Number only, in nM; omit the unit.

Record Sequence | Experimental Result
UUACUUCAUGAGAAGGACAUGAGGAUCACCCAUGUAGGAUAUCGUGGGAGACUGGUAUUGAAUCUUCGGAUUCAAUACCAGUCU | 56.9
GCCAUCGCAUGAGGAUAUAAUCGGGUUUCCCGUUUAGAAGGCAUGUCAUAAGACAUGAGGAUCACCCAUGUAGUUAAGAUGGCA | 471
GAGUGACGAUUAGGAUAUAUAGUGAUAAUGAUAAUAGAAGGAAUUGACAUGAGGAUCACCCAUGUAGGACUAAUCCAGAGAGAG | 64.2
GUAUCAUACCAAGGAUAUUUAGGACUUGUAUAGACAUGAGGAUCACCCAUGUGGCGUUAGUCACGGGAGAAGGUGGUAUGAUAC | 88.4
GGGUACAUCGGAGGAUAUCAUGUAAAUACAUGAGGAUCACCCAUGUCGAUGGAGACAUCGGAGAUUGAGAAGGCCAAUGUACCG | 180

# lookup: apparent Kd of UGUUGUAUUACAGGAUAUCUAUUAGUAUUAUUUAGAGAAGGGUAUUCACAUGAGGAUCACCCAUGUAUAUACGAGGAAGUUGUG
46.9

# lookup: apparent Kd of AGGAGACAUGAGGAUCACCCAUGUGAGAAGAGGCGAGGAUAUCGAAAAAAAAAAAAAAAACGAGAAGGCGCGAGAA
71
